# Test system: DeltatarO mutant
# Test Protocol: S. aureus survival, RN4220 and DeltatarO strains – OD600, teichoic acid synthesis inhibitors, primary screen (AID 463173)
# Condition Summary: S. aureus RN4220 wild type/DeltatarO growth, OD600, 18 h, stronger effect = lower value, screened at 18.75 µg/mL (by protocol)
The campaign covered roughly 52,000 compounds. About 4,300 (8.3%) were called active. The entries come from a sample that favours actives as a whole.
Attribute: survival
Express it in %; write the number only.

# count of solved cases: 4
Molecule	Endpoint Value
COc1ccc(C(=O)c2oc3ccccc3c2NC(=O)c2cc(=O)c3ccc(C)cc3o2)cc1Cl	44
COc1cccc(CNC(=O)C2CCN(c3nc4ccc(Cl)cc4[nH]3)CC2)c1	101
CCOc1ccccc1NC(=O)c1cc(=O)c2ccc(C)cc2o1	44
O=C(C1CCN(c2nc3ccccc3[nH]2)CC1)N1CCN(c2cccc(Cl)c2)CC1	8

Given the molecule Cc1cccc(NC(c2nnc(-c3ccccc3)o2)c2ccc(F)cc2Cl)c1C (stereo not drawn) , what is its reported survival?
61

Next: Cc1ccc2nc(N3CCC(C(=O)N4CCN(c5cccc(Cl)c5)CC4)CC3)[nH]c2c1
68

Next: CCOc1ccccc1NC(c1nnc(-c2ccccc2)o1)c1ccc(F)cc1Cl (stereo not drawn)
1

Next: CCc1ccc2oc(C(=O)Nc3ccccc3OC)cc(=O)c2c1
49

###

# System: DeltatarO mutant
# Test Protocol: S. aureus survival, RN4220 and DeltatarO strains – OD600, teichoic acid synthesis inhibitors, primary screen (AID 463173)
# Condition Summary: S. aureus RN4220 wild type/DeltatarO growth, OD600, 18 h, screened at 18.75 µg/mL (by protocol)
Hit rate of the full screen: of about 52,000 compounds, about 4,300 (8.3%) were called active. Rule as the data show it: active = survival mostly below about 52% (no sharp cut-off); inactive = mostly above about 56%. For the sample, actives were picked, then their nearest neighbours and some compounds at random.
// classify into true (1) (active), false (0) (inactive)

Example entries and their recorded answers appear below.
Molecule	Target Desc	Label Class
CNC(=O)CN1C(=O)COc2ccc(S(=O)(=O)N3CCCCCC3)cc21	DeltatarO mutant	false (0)
Cc1ccc(-c2noc(CNC(=O)COc3cc(C)c(Br)c(C)c3)n2)cc1	DeltatarO mutant	false (0)
Cc1c(C(=O)Nc2ccccc2F)sc2ncnc(N(C)C3CCCCC3)c12	DeltatarO mutant	true (1)
Cc1cccc(-c2nc3c4ccccc4nc(N4CCN(c5ccc(F)cc5)CC4)n3n2)c1	DeltatarO mutant	false (0)
Cc1cccc(CNC(=O)c2sc3ncnc(N(C)C4CCCCC4)c3c2C)c1	DeltatarO mutant	true (1)

Recorded test call requested for Cc1cccc(-c2nc3c4ccccc4nc(N4CCN(c5cccc(Cl)c5)CC4)n3n2)c1
false (0)

Next: Cc1c(N)c(C)c(N)c(C)c1N
false (0)

Next: Cc1ccc(-c2noc(CNC(C)C)n2)cc1
false (0)

Next: CCC(C(=O)N1CCN(c2cc(Cl)ccc2C)CC1)n1nc(C)n2c(cc3occc32)c1=O (stereo not drawn)
false (0)

Next: O=C(CSc1nc2c(c(=O)[nH]1)CCCC2)Nc1ccccc1C(F)(F)F
false (0)

Next: Cc1ccc(CNC(=O)NC2COc3ccccc3C2)cc1 (stereo not drawn)
false (0)

Next: Cc1ccc(CC(=O)NCc2nc(-c3ccccc3)no2)cc1
false (0)

Next: COc1ccccc1N1CCN(S(=O)(=O)CCNC(=O)c2cc(=O)c3ccccc3o2)CC1
false (0)

###

# Tested on: DeltatarO mutant
# Test Protocol: S. aureus survival, RN4220 and DeltatarO strains – OD600, teichoic acid synthesis inhibitors, primary screen (AID 463173)
# Condition Summary: S. aureus RN4220 wild type/DeltatarO growth, OD600, 18 h, screened at 18.75 µg/mL (by protocol)
The whole screen tested about 52,000 compounds, of which about 4,300 (8.3%) were called active. Cut-off read from the data, not from the text of the source: active = survival mostly below about 52% (no sharp cut-off); inactive = mostly above about 56%. What follows is part of a selection rich in actives, with near analogues and random picks from the rest.
// classify into active, inactive

Compound	Label Class
CCCN(CCC)CC(O)Cn1cc(/C=C/C(=O)c2ccc(OC)cc2)c2ccccc21 (stereo not drawn)	active
C=CCn1c(O)c(CN2CCOCC2)c(C)c(C#N)c1=O	inactive
COc1ccc(C(=O)/C=C/c2cn(CC(O)CN(CC(C)C)CC(C)C)c3ccccc23)cc1OC (stereo not drawn)	inactive

Recorded test call requested for Cc1c(C(=O)Nc2ccccc2)sc2nc(-c3cc4cc(Cl)ccc4oc3=O)[nH]c(=O)c12
active

Next: COc1ccccc1NC(=O)c1sc2nc(-c3cc4cc(Cl)ccc4oc3=O)[nH]c(=O)c2c1C
active

Next: O=C(Cc1ccccc1)Nc1sc2c(c1C(=O)Nc1ccccc1Cl)CCCC2
active

Next: CCCSc1ncc(Cl)c(C(=O)Nc2ccc(S(=O)(=O)N3CCCCC3C)cc2)n1 (stereo not drawn)
inactive

Next: CC(C)CN(CC(C)C)CC(O)Cn1cc(/C=C/C(=O)c2ccccc2)c2ccccc21 (stereo not drawn)
active

Next: COc1cccc(NC(=O)CC2NCCNC2=O)c1 (stereo not drawn)
inactive

Next: CC(CCO)Nc1nc2c(c(=O)n(C)c(=O)n2C)n1Cc1ccc(Br)cc1 (stereo not drawn)
inactive

Next: CCOC(=O)c1cnn(-c2ccc(C(=O)Nc3cccc(C(C)=O)c3)cc2)c1N
inactive

Next: CCCCN(CC)CCCNC(=O)c1cn(CC(C)C)c(=O)c2c1c1ccccc1n2C
inactive

Next: COc1ccccc1NC(=O)CN1C(=O)C(c2ccc(F)cc2)=NC12CCCCC2
inactive

###

# System: DeltatarO mutant
# Test Protocol: S. aureus survival, RN4220 and DeltatarO strains – OD600, teichoic acid synthesis inhibitors, primary screen (AID 463173)
# Condition Summary: S. aureus RN4220 wild type/DeltatarO growth, OD600, 18 h, stronger effect = lower value, screened at 18.75 µg/mL (by protocol)
Screen size: about 52,000 compounds; about 4,300 (8.3%) were called active. The sample as a whole holds a higher share of actives than the screen did.
Attribute: survival
Express it in %; write the number only.

# count of solved cases: 2
Molecule	survival / %
CCOc1ccc(NS(=O)(=O)c2ccc3[nH]cc(C(=O)NCC4CCCO4)c(=O)c3c2)cc1 (stereo not drawn)	87
O=C(CN1C(=O)COc2ccc(S(=O)(=O)N3CCOCC3)cc21)N1CCN(c2ccccc2)CC1	116

Given the molecule Cc1ccccc1CNC(=O)c1ccc(CSc2nc3cccnc3n2Cc2ccccc2)cc1 , what is its reported survival?
55

###

# Tested on: DeltatarO mutant
# Test Protocol: S. aureus survival, RN4220 and DeltatarO strains – OD600, teichoic acid synthesis inhibitors, primary screen (AID 463173)
# Condition Summary: S. aureus RN4220 wild type/DeltatarO growth, OD600, 18 h, screened at 18.75 µg/mL (by protocol)
The campaign covered roughly 52,000 compounds. About 4,300 (8.3%) were called active. No stated cut-off is given here; in the data, active means survival mostly below about 52% (no sharp cut-off); inactive means mostly above about 56%. Shown is part of a subset that was picked to be rich in actives.
// classify into active, inactive

Example entries and their recorded answers appear below.
Compound	Label Class
Cn1cc(-c2nnc(-c3ccccc3)o2)c2ccccc21	inactive
COc1ccc(-c2cc(C(F)(F)F)n3nc(C(=O)Nc4cccc(Cl)c4C)cc3n2)cc1	inactive
CCC(=O)/C=C1/Sc2ccc(C)cc2N1CC	inactive
Cc1oc(-c2ccccc2Cl)nc1CS(=O)(=O)CC(=O)NC(C)c1ccccc1 (centres undefined)	inactive
COc1ccc(CCNC(=O)CCn2c(=O)c3cccn3c3ccc(F)cc32)c(OC)c1OC	active
COc1ccc(OC)c(CCNC(=O)CCn2c(=O)c3cccn3c3ccc(F)cc32)c1	inactive

Recorded test call requested for CCc1ccc(NC(=O)CC2C(=O)NCCN2C(=O)c2ccccc2OC)cc1 (centres undefined)
inactive

Next: Cc1ccc(NC(=O)Cc2ccc(-n3c(C)nc4cccnc43)cc2)c(Cl)c1
inactive

Next: COc1ccccc1CCNC(=O)CCn1c(=O)c2cccn2c2ccc(F)cc21
active

###

Attribute: survival
# Test system: DeltatarO mutant
# Test Protocol: S. aureus survival, RN4220 and DeltatarO strains – OD600, teichoic acid synthesis inhibitors, primary screen (AID 463173)
# Condition Summary: S. aureus RN4220 wild type/DeltatarO growth, OD600, 18 h, stronger effect = lower value, screened at 18.75 µg/mL (by protocol)
Among all 52,000 compounds or so, about 4,300 (8.3%) were called active. What follows is part of a selection rich in actives, with near analogues and random picks from the rest.
Express it in %; write the number only.

# count of solved cases: 6
Molecule	survival [%]
O=C(CCC1N=C2c3ccccc3N=C(SCc3ccc(F)cc3)N2C1=O)NCc1cccs1 (configuration not stated)	135
COc1ccc(CNC(=O)CCC2N=C3c4ccccc4N=C(SCc4ccccc4F)N3C2=O)cc1 (configuration not stated)	37
CCOc1ccc(C(=O)NCCc2sc(-c3ccc(OC)c(OC)c3)nc2C)cc1	109
CCN(CC)S(=O)(=O)c1nnc(NC(=O)COc2ccc(C)cc2)s1	88
N#C/C(=C\c1ccc(-c2cc(Cl)ccc2Cl)o1)C(=O)Nc1ccccc1C(=O)O	37
Cc1ccc(NC(=O)Cn2c(=O)n(CCc3ccccc3)c(=O)c3c4c(sc32)CCCC4)cc1C	97

Given the molecule N#C/C(=C/c1ccc(-c2ccc(S(N)(=O)=O)cc2)o1)C(=O)Nc1cc(Cl)ccc1Cl , what is its reported survival?
46

Next: Cc1ccc(-c2nn(CC(=O)NC3CCCCC3)c3c2cnc2ccc(F)cc23)cc1C
0

Next: CCc1ccc(-c2nn(CC(=O)NC3CCCC3)c3c2cnc2ccc(C)cc23)cc1
37

Next: CCOc1ccc(NC(=O)C(=O)NCCc2sc(-c3ccc(C)cc3)nc2C)cc1
79

Next: CCc1ccc(-c2nn(CC(=O)NC3CCCCC3)c3c2cnc2ccc(F)cc23)cc1
72

Next: CCN(CC)S(=O)(=O)c1nnc(NC(=O)COc2ccccc2)s1
100

Next: Cc1cc(C)c(NC(=O)C(C)n2c(=O)cc(C)c3c(C)nn(-c4ccccc4)c32)c(C)c1 (configuration not stated)
81

Next: CCN(CC)S(=O)(=O)c1nnc(NC(=O)COc2ccc(Cl)cc2)s1
87

Next: COc1ccc(-c2nc(C)c(CCNC(=O)c3cc(OC)c(OC)c(OC)c3)s2)cc1OC
64

Next: CCc1ccc(C2=NN(CCC(=O)NCCc3ccc(Cl)cc3)C(=O)CC2)cc1
128

Next: CCN(CC)S(=O)(=O)c1nnc(NC(=O)c2ccc(C)cc2)s1
63

Next: N#C/C(=C\c1ccc(-c2ccc(C(=O)O)cc2)o1)C(=O)Nc1ccccc1C(=O)O
60

Next: Cc1ccccc1-c1nn2c(=O)cc(CN3CCN(C(=O)c4ccc(C(C)(C)C)cc4)CC3)nc2s1
97

Next: Cc1oc(-c2ccc(C(=O)Nc3ccccc3F)cc2)nc1COc1ccccc1
94

Next: O=C(O)CC1CCCC(c2ccccc2)C1=O (configuration not stated)
91

Next: CCCNC(=O)Cn1nc(-c2ccc(C)cc2)c2cnc3ccc(CC)cc3c21
37

Next: CCc1ccc2ncc3c(-c4ccc(C)cc4)nn(CC(=O)Nc4ccc(C)cc4)c3c2c1
55
